# Assay: Stability testing of 5 crystalline forms over 8 weeks at harsh conditions (40° C., 75% relative humidity)
# Assay type: physicochemical
# Test Context: 40° C./75% RH, 8 weeks
Metric Name: Assay
A bare number is not enough; add the unit after it.

Compound: O=S1(=O)CCN(Cc2cc(NC3CCOCC3)c3[nH]c(-c4ccccc4)cc3c2)CC1 [Crystalline Form IV]
Assay: 104.25%

Can you give me Assay for all of these, one by one?
1. O=S1(=O)CCN(Cc2cc(NC3CCOCC3)c3[nH]c(-c4ccccc4)cc3c2)CC1 [Crystalline Form XI]
2. O=S1(=O)CCN(Cc2cc(NC3CCOCC3)c3[nH]c(-c4ccccc4)cc3c2)CC1 [Crystalline Form V]
3. O=S1(=O)CCN(Cc2cc(NC3CCOCC3)c3[nH]c(-c4ccccc4)cc3c2)CC1 [Crystalline Form VIII]

1. 104.04%
2. 104.75%
3. 107.08%

----------
# Assay: Solubility equilibrium in DMSO/EtOH mixed solvent by temperature
# Type: physicochemical
# Test Context: DMSO/EtOH 1:4 mixed solvent, organic solvent or mixture, thermodynamic from solid, DMSO/EtOH 1:4, 50° C.
# Experimental: These were respectively heated and held at 50° C., 60° C., and 75° C. while being agitated for 6 hours. […] Accordingly, it was decided that a super-saturation method would be considered.
Metric Name: solubility at 6 h (mg/mL)
Give bare numbers, in mg/mL.

Supply recorded solubility at 6 h for O=S1(=O)CCN(Cc2cc(NC3CCOCC3)c3[nH]c(-c4ccccc4)cc3c2)CC1 [compound of Chemical Formula 1] here. 15

----------
So I've got a bunch of compounds here, and I need their Purity values.
# Assay: Stability testing of 5 crystalline forms over 8 weeks at harsh conditions (40° C., 75% relative humidity)
# Format: physicochemical
# Test Context: 40° C./75% RH, 8 weeks
# Procedure: Stability testing was carried out over 8 weeks at harsh conditions (40° C., 75%, relative humidity) on the 5 crystalline forms obtained in Example 3.
Give bare numbers, in %.

Look over these answered cases.
Compound: O=S1(=O)CCN(Cc2cc(NC3CCOCC3)c3[nH]c(-c4ccccc4)cc3c2)CC1 [Crystalline Form XI]
Purity [%]: 99.58
//
Compound: O=S1(=O)CCN(Cc2cc(NC3CCOCC3)c3[nH]c(-c4ccccc4)cc3c2)CC1 [Crystalline Form IV]
Purity [%]: 99.86
//
Compound: O=S1(=O)CCN(Cc2cc(NC3CCOCC3)c3[nH]c(-c4ccccc4)cc3c2)CC1 [Crystalline Form V]
Purity [%]: 99.36

From here, focus on the item given below.
Supply recorded Purity for O=S1(=O)CCN(Cc2cc(NC3CCOCC3)c3[nH]c(-c4ccccc4)cc3c2)CC1 [Crystalline Form VIII] here. 100.00

----------
So I've got a bunch of compounds here, and I need their Purity values.
# Assay: Stability testing of 5 crystalline forms over 8 weeks at harsh conditions (40° C., 75% relative humidity)
# Assay type: physicochemical
# Test Context: Initial
Give bare numbers, in %.

Look over these answered cases.
Compound: O=S1(=O)CCN(Cc2cc(NC3CCOCC3)c3[nH]c(-c4ccccc4)cc3c2)CC1 [Crystalline Form VIII]
Reported Measurement: 99.94
--
Compound: O=S1(=O)CCN(Cc2cc(NC3CCOCC3)c3[nH]c(-c4ccccc4)cc3c2)CC1 [Crystalline Form IV]
Reported Measurement: 99.87

Can you give me Purity for all of these, one by one?
1. O=S1(=O)CCN(Cc2cc(NC3CCOCC3)c3[nH]c(-c4ccccc4)cc3c2)CC1 [Crystalline Form XI]
2. O=S1(=O)CCN(Cc2cc(NC3CCOCC3)c3[nH]c(-c4ccccc4)cc3c2)CC1 [Crystalline Form V]

1: 99.55; 2: 99.37
